# condition: 333 K; 101.33 kPa; Liquid
assay readout: viscosity (mPa·s)
Give bare numbers, in mPa·s.

> print(dat)
                                   compound  assay.readout  units.of.measure  value.observed
1  CCCCCC[n+]1ccccc1.O=S(=O)([N-]S(=O)(=O)C(F)(F)F)C(F)(F)F [1-hexylpyridinium bis(trifluromethylsulfonyl)imide]      viscosity             mPa·s              21
2  CCCCCC[n+]1ccn(C)c1.O=S(=O)([N-]S(=O)(=O)C(F)(F)F)C(F)(F)F      viscosity             mPa·s              19
3  CCCCCC[n+]1cc(C)cc(C)c1.O=S(=O)([N-]S(=O)(=O)C(F)(F)F)C(F)(F)F      viscosity             mPa·s              24
4  CCCCn1cc[n+](C)c1.O=C([O-])C(F)(F)F [1-butyl-3-methylimidazolium trifluoroacetate]      viscosity             mPa·s              19

For each of the compounds below, state viscosity.
1. CCOC(=O)c1ccc[n+](CC)c1.CCOS(=O)(=O)[O-] [3-(ethoxycarbonyl)-1-ethylpyridinium ethylsulfate]
2. CCCCCC[n+]1cccc(C)c1.O=S(=O)([N-]S(=O)(=O)C(F)(F)F)C(F)(F)F
3. CCCCn1cc[n+](C)c1.COCCOCCOS(=O)(=O)[O-] [1-butyl-3-methylimidazolium 2-(2-methoxyethoxy)ethyl sulfate]
4. CCCC[n+]1cccc(C)c1.F[B-](F)(F)F [1-butyl-3-methylpyridinium tetrafluoroborate]
5. CCCC[n+]1cccc(C)c1.O=S(=O)([N-]S(=O)(=O)C(F)(F)F)C(F)(F)F

221
22
146
33
18

Record viscosity per entry; entries follow.
1. CCOS(=O)(=O)[O-].CC[n+]1cccc(C)c1 [1-ethyl-3-methylpyridinium ethylsulfate]
2. CCn1cc[n+](C)c1.O=S(=O)([N-]S(=O)(=O)C(F)(F)F)C(F)(F)F
3. CCCCCCn1cc[n+](C)c1C.O=S(=O)([N-]S(=O)(=O)C(F)(F)F)C(F)(F)F
4. CC(=O)[O-].CCCCn1cc[n+](C)c1 [1-butyl-3-methylimidazolium acetate]
5. CCOS(=O)(=O)[O-].CC[n+]1ccccc1 [1-ethylpyridinium ethyl sulfate]

1. 32
2. 12
3. 30
4. 62
5. 31

For CCCCCCCCCCCCCC[N+](C)(CCOCCOCCOCCOCCOCCO)CCOCCOCCOCCOCCOCCO.COS(=O)(=O)[O-] , write its viscosity.
300

----------
# condition: 298 K; 101.33 kPa; Liquid
So I've got a bunch of compounds here, and I need their viscosity values.
Give bare numbers, in mPa·s.

Look over these answered cases.
> print(dat)
                                   compound  units.of.measure  value.observed
1  CCCC[n+]1cccc(C)c1.F[B-](F)(F)F [1-butyl-3-methylpyridinium tetrafluoroborate]             mPa·s             177
2  CCCCCC[n+]1cc(C)cc(C)c1.O=S(=O)([N-]S(=O)(=O)C(F)(F)F)C(F)(F)F             mPa·s             104
3  CCCCCC[n+]1cccc(C)c1.O=S(=O)([N-]S(=O)(=O)C(F)(F)F)C(F)(F)F             mPa·s              85

For the next question, use this compound.
Consider the compound CCCCn1cc[n+](C)c1.O=C([O-])C(F)(F)F [1-butyl-3-methylimidazolium trifluoroacetate] . State its measured viscosity.
70

----------
# condition: 283 K; 101.33 kPa; Liquid
Binary classification by viscosity, with 400 mPa·s as an inclusive lower bound for Satisfied; all other cases are Not satisfied.

> print(dat)
                                   compound    class.label
1  CCOS(=O)(=O)[O-].CC[n+]1ccccc1 [1-ethylpyridinium ethyl sulfate]  Not satisfied
2  CCCCCC[n+]1cccc(C)c1.O=S(=O)([N-]S(=O)(=O)C(F)(F)F)C(F)(F)F  Not satisfied
3  CCCCn1cc[n+](C)c1.O=C([O-])C(F)(F)F [1-butyl-3-methylimidazolium trifluoroacetate]  Not satisfied
4  CCCCCCn1cc[n+](C)c1C.O=S(=O)([N-]S(=O)(=O)C(F)(F)F)C(F)(F)F  Not satisfied
5  CCCCCC[n+]1cc(C)cc(C)c1.O=S(=O)([N-]S(=O)(=O)C(F)(F)F)C(F)(F)F  Not satisfied

Given the entry CCOC(=O)c1ccc[n+](CC)c1.CCOS(=O)(=O)[O-] [3-(ethoxycarbonyl)-1-ethylpyridinium ethylsulfate] , answer whether its viscosity meets or surpasses 400 mPa·s.
Satisfied

----------
# condition: 313 K; 101.33 kPa; Liquid
Lab note: compare viscosity against 200 mPa·s. Equal or greater, write Condition met. Smaller, write Condition not met.

Please review the following examples before continuing.
> print(dat)
                                   compound        class.label
1  CCCCn1cc[n+](C)c1.O=C([O-])C(F)(F)F [1-butyl-3-methylimidazolium trifluoroacetate]  Condition not met
2  CCCCCCn1cc[n+](C)c1C.O=S(=O)([N-]S(=O)(=O)C(F)(F)F)C(F)(F)F  Condition not met
3  CCCCCCCCCCCCCC[N+](C)(CCOCCOCCOCCOCCOCCO)CCOCCOCCOCCOCCOCCO.COS(=O)(=O)[O-]      Condition met
4  CCCC[n+]1cccc(C)c1.O=S(=O)([N-]S(=O)(=O)C(F)(F)F)C(F)(F)F  Condition not met
5  CCOC(=O)c1ccc[n+](CC)c1.CCOS(=O)(=O)[O-] [3-(ethoxycarbonyl)-1-ethylpyridinium ethylsulfate]      Condition met

// inclusive: viscosity at least 200 mPa·s? input: CC(=O)[O-].CCCCn1cc[n+](C)c1 [1-butyl-3-methylimidazolium acetate]
Condition not met

Evaluate CCOS(=O)(=O)[O-].CC[n+]1cccc(C)c1 [1-ethyl-3-methylpyridinium ethylsulfate] : viscosity at minimum 200 mPa·s?
Condition not met

Does the reported viscosity for CCCCCC[n+]1cc(C)cc(C)c1.O=S(=O)([N-]S(=O)(=O)C(F)(F)F)C(F)(F)F fall at or above the 200 mPa·s mark?
Condition not met

----------
# condition: Glass
Would you kindly list Glass transition temperature for each of these compounds?
One number for each entry, in °C.

Observe how each entry below is paired with its result.
> print(dat)
                                   compound  value.observed
1  CCCCCCn1cc[n+](C)c1C.O=S(=O)([N-]S(=O)(=O)C(F)(F)F)C(F)(F)F             -74
2  CCOS(=O)(=O)[O-].CC[n+]1cccc(C)c1 [1-ethyl-3-methylpyridinium ethylsulfate]             -71
3  CCCCCC[n+]1cccc(C)c1.[Br-] [1-hexyl-3-methylpyridinium bromide]             -37

# ---- query compound ----
State its Glass transition temperature: CCCCCC[n+]1ccc(N2CCC(C)CC2)cc1.[Br-] [1-hexyl-4-(4-methyl-1-piperidinyl)pyridinium bromide]
33

----------
# condition: Crystal
± gives the expanded uncertainty stated by the source.
Assign Triple point temperature to each entry below.
A complete answer gives the number and then names the unit.

> print(dat)
                                   compound  value.observed
1  CCCC[n+]1ccc(N(C)C)cc1.[Br-] [1-butyl-4-(dimethylamino)pyridinium bromide]       495 ± 3 K

# map each compound to its Triple point temperature
1. CCCC[n+]1ccccc1.[Br-] [1-butylpyridinium bromide]
2. CCCCCCn1cc[n+](C)c1C.O=S(=O)([N-]S(=O)(=O)C(F)(F)F)C(F)(F)F
3. CCCCCC[n+]1ccc(N(C)C)cc1.[Br-] [4-(dimethylamino)-1-hexylpyridinium bromide]

1. 378 ± 3 K
2. 268 ± 3 K
3. 469 ± 3 K

----------
# condition: 313 K; 101.33 kPa; Liquid
assay readout: viscosity (mPa·s)
Give bare numbers, in mPa·s.

I have 4 compounds here; please give me viscosity for each one.
1. CCn1cc[n+](C)c1.O=S(=O)([N-]S(=O)(=O)C(F)(F)F)C(F)(F)F
2. CCCCCC[n+]1cccc(C)c1.O=S(=O)([N-]S(=O)(=O)C(F)(F)F)C(F)(F)F
3. CCCCCC[n+]1ccccc1.O=S(=O)([N-]S(=O)(=O)C(F)(F)F)C(F)(F)F [1-hexylpyridinium bis(trifluromethylsulfonyl)imide]
4. CCCC[n+]1cccc(C)c1.F[B-](F)(F)F [1-butyl-3-methylpyridinium tetrafluoroborate]

1. 19
2. 44
3. 42
4. 78

# return viscosity for each item in the list
1. CCCCCC[n+]1ccn(C)c1.O=S(=O)([N-]S(=O)(=O)C(F)(F)F)C(F)(F)F
2. CCOS(=O)(=O)[O-].CC[n+]1ccccc1 [1-ethylpyridinium ethyl sulfate]
3. CCCCn1cc[n+](C)c1.COCCOCCOS(=O)(=O)[O-] [1-butyl-3-methylimidazolium 2-(2-methoxyethoxy)ethyl sulfate]

1. 37
2. 66
3. 392
